Tested on: ICR mice
experiment description: Evaluation of side effects of constipation (defecation time, number, weight)
Format: in vivo
test parameters: 1 mg/kg; first black stool; x ± SE; only animals that defecate within 5 hours
Where a name gives a salt, the structure may show the parent alone.
assay readout: Defecation time (min)
All answers are understood in min, so give the number only.

Example compounds with recorded Defecation time:
[2H]C([2H])([2H])N(C[C@@H]1CN(S(=O)(=O)Cc2ccccc2)CC[C@@]1(O)c1cccc(OC)c1)C([2H])([2H])[2H] [II-3hydrochloride] ... 152.8
COc1cccc([C@]2(O)CCN(S(=O)(=O)Cc3ccccc3)C[C@H]2CN(C)C)c1.Cl [Example 20 of CN201911076305.X, reference compound] ... 281
[2H]C([2H])([2H])Oc1cccc([C@]2(O)CCN(C(=O)Cc3cc(F)c(F)cc3F)C[C@H]2CN(C([2H])([2H])[2H])C([2H])([2H])[2H])c1 [II-11hydrochloride] ... 190.3
[2H]C([2H])([2H])N(C)C[C@@H]1CN(S(=O)(=O)Cc2ccccc2)CC[C@@]1(O)c1cccc(OC)c1 [II-1hydrochloride] ... 105.9
[2H]C([2H])([2H])N(C[C@@H]1CN(C(=O)Cc2cc(F)c(F)cc2F)CC[C@@]1(O)c1cccc(OC)c1)C([2H])([2H])[2H] [II-9hydrochloride] ... 182.6

Asked: For the compound [2H]C([2H])([2H])N(C)C[C@@H]1CN(C(=O)Cc2cc(F)c(F)cc2F)CC[C@@]1(O)c1cccc(OC)c1 [II-7hydrochloride] , what Defecation time is on record?
Given back: 109.0

Asked: Record: [2H]C([2H])([2H])Oc1cccc([C@]2(O)CCN(S(=O)(=O)Cc3ccccc3)C[C@H]2CN(C([2H])([2H])[2H])C([2H])([2H])[2H])c1 [II-5hydrochloride]
Given back: 160.1

----------
study target: UniProtKB P11712
experiment description: Inhibition of cytochrome P450 enzyme in human liver microsomes, CYP 2C9
pIC50: −log10 of the molar value. Structures can show the parent of a compound that is named as a salt.
assay readout: pIC50

The following molecules have reported results that may help.
[2H]C([2H])([2H])N(C[C@@H]1CN(S(=O)(=O)Cc2ccccc2)CC[C@@]1(O)c1cccc(OC)c1)C([2H])([2H])[2H] [II-3hydrochloride] ... < 4.30
COc1ccsc1CNCC[C@@]1(c2ccccn2)CCOC2(CCCC2)C1 [TRV-130, reference compound] ... < 4.30
[2H]C([2H])([2H])Oc1cccc([C@]2(O)CCN(S(=O)(=O)Cc3ccccc3)C[C@H]2CN(C([2H])([2H])[2H])C([2H])([2H])[2H])c1 [II-5hydrochloride] ... < 4.30

Next:
Asked: Requested read-out: pIC50. Entry: [2H]C([2H])([2H])N(C)C[C@@H]1CN(C(=O)Cc2cc(F)c(F)cc2F)CC[C@@]1(O)c1cccc(OC)c1 [II-7hydrochloride]
Given back: < 4.30

----------
Parameter: κOR binding rate. Scope: all listed entries.
study target: κOR (Homo sapiens, UniProt P41145)
Construct: expressed in transfected cells; host or cells: CHO cells
experiment description: Opioid receptor competitive binding test, κOR
test parameters: compound at 10 μM; [3H]-labeled ligand; CHO cell membranes; ± SD of three measurements
Description: CHO cells expressing p opioid receptor, δ opioid receptor and K opioid receptor are cultured in a 10 cm^2 Petri dish (F-12 medium+10% newborn bovine serum) for several days, and the culture solution is sucked after the cells grew to the bottom of the dish. 3 ml PBS/EDTA solution (0.1M NaCl, 0.01M NaH2PO4, 0.04% EDTA) is added for digestion for 3-5 minutes. […] IC50 is calculated with Prism 5.0 software. […]
Structures can show the parent of a compound that is named as a salt.
Report the figure along with its unit, number first.

COc1cccc([C@]2(O)CCN(S(=O)(=O)Cc3ccccc3)C[C@H]2CN(C)C)c1.Cl [Example 20 of CN201911076305.X, reference compound] ... 15.25 ± 1.56%
[2H]C([2H])([2H])Oc1cccc(C2(O)CCN(C(=O)Cc3cc(F)c(F)cc3F)CC2CN(C([2H])([2H])[2H])C([2H])([2H])[2H])c1 (centres unmarked) [I-7hydrochloride] ... 15.9 ± 0.7%
[2H]C([2H])([2H])N(CC1CN(S(=O)(=O)Cc2ccccc2)CCC1(O)c1cccc(OC)c1)C([2H])([2H])[2H] (centres unmarked) [I-4hydrochloride] ... 18.5 ± 3.2%
[2H]C([2H])([2H])Oc1cccc([C@]2(O)CCN(S(=O)(=O)Cc3ccccc3)C[C@H]2CN(C)C([2H])([2H])[2H])c1 [II-6hydrochloride] ... 14.5 ± 3.1%
[2H]C([2H])([2H])N(C)C[C@@H]1CN(C(=O)Cc2cc(F)c(F)cc2F)CC[C@@]1(O)c1cccc(OC)c1 [II-7hydrochloride] ... 16.6 ± 2.9%
[2H]C([2H])([2H])Oc1cccc(C2(O)CCN(S(=O)(=O)Cc3ccccc3)CC2CN(C)C([2H])([2H])[2H])c1 (centres unmarked) [I-2hydrochloride] ... 23.8 ± 1.9%
COc1cccc(C2(O)CCCCC2CN(C)C)c1 (centres unmarked) [Tramadol, reference compound] ... 0%
[2H]C([2H])([2H])N(C[C@@H]1CN(C(=O)Cc2cc(F)c(F)cc2F)CC[C@@]1(O)c1cccc(OC)c1)C([2H])([2H])[2H] [II-9hydrochloride] ... 17.2 ± 3.5%
[2H]C([2H])([2H])Oc1cccc(C2(O)CCN(C(=O)Cc3cc(F)c(F)cc3F)CC2CN(C)C([2H])([2H])[2H])c1 (centres unmarked) [I-6hydrochloride] ... 20.5 ± 2.3%
[2H]C([2H])([2H])N(C[C@@H]1CN(S(=O)(=O)Cc2ccccc2)CC[C@@]1(O)c1cccc(OC)c1)C([2H])([2H])[2H] [II-3hydrochloride] ... 15.3 ± 2.0%

// moving on: another record for κOR binding rate
Asked: Data request, read-out κOR binding rate, for [2H]C([2H])([2H])N(C)CC1CN(S(=O)(=O)Cc2ccccc2)CCC1(O)c1cccc(OC)c1 (centres unmarked) [I-1hydrochloride]
Given back: 22.5 ± 3.2%

----------
Test system: ICR mice
experiment description: Evaluation of side effects of constipation (defecation time, number, weight)
Type: in vivo
test parameters: 5 mg/kg; within 5 hours; x ± SE
Procedure: Constipation side effect is a common side effect of opioid drugs. This patent evaluates the possibility of constipation side effect by the influence of the compound on defecation time, defecation quantity and defecation weight of experimental animals. […] After administration for 30 minutes, the mice in each group are given Chinese ink by gavage. After administration, the mice are kept in a single cage, and the excretion time of the first black stool is recorded. […]
Structures can show the parent of a compound that is named as a salt.
assay readout: Fecal weight (g)
Give the quantity in g, number only.

Asked: What is its Fecal weight for ICR mice? Entry: [2H]C([2H])([2H])N(C[C@@H]1CN(S(=O)(=O)Cc2ccccc2)CC[C@@]1(O)c1cccc(OC)c1)C([2H])([2H])[2H] [II-3hydrochloride]
Given back: 0.0482

Asked: Likewise for [2H]C([2H])([2H])N(C[C@@H]1CN(C(=O)Cc2cc(F)c(F)cc2F)CC[C@@]1(O)c1cccc(OC)c1)C([2H])([2H])[2H] [II-9hydrochloride] ?
Given back: 0.0489

Asked: And the next one, [2H]C([2H])([2H])Oc1cccc([C@]2(O)CCN(C(=O)Cc3cc(F)c(F)cc3F)C[C@H]2CN(C([2H])([2H])[2H])C([2H])([2H])[2H])c1 [II-11hydrochloride] ?
Given back: 0.0496

Asked: One more compound: [2H]C([2H])([2H])Oc1cccc([C@]2(O)CCN(S(=O)(=O)Cc3ccccc3)C[C@H]2CN(C([2H])([2H])[2H])C([2H])([2H])[2H])c1 [II-5hydrochloride]
Given back: 0.0478

Asked: Note, next up: [2H]C([2H])([2H])N(C)C[C@@H]1CN(C(=O)Cc2cc(F)c(F)cc2F)CC[C@@]1(O)c1cccc(OC)c1 [II-7hydrochloride]
Given back: 0.0612

Asked: Would you kindly repeat that for COc1cccc([C@]2(O)CCN(S(=O)(=O)Cc3ccccc3)C[C@H]2CN(C)C)c1.Cl [Example 20 of CN201911076305.X, reference compound] ?
Given back: 0

Asked: Consider next the compound [2H]C([2H])([2H])N(C)C[C@@H]1CN(S(=O)(=O)Cc2ccccc2)CC[C@@]1(O)c1cccc(OC)c1 [II-1hydrochloride] in the same way.
Given back: 0.0586

----------
Here, each record is paired with measured κOR binding rate data.
study target: κOR (Homo sapiens, UniProt P41145)
Construct: expressed in transfected cells; host or cells: CHO cells
experiment description: Opioid receptor competitive binding test, κOR
test parameters: compound at 10 μM; [3H]-labeled ligand; CHO cell membranes; ± SD of three measurements
Structures can show the parent of a compound that is named as a salt.
Quick note: give the figure in %, leave out the unit.

Examples with their reported κOR binding rate follow.
[2H]C([2H])([2H])Oc1cccc([C@]2(O)CCN(C(=O)Cc3cc(F)c(F)cc3F)C[C@H]2CN(C([2H])([2H])[2H])C([2H])([2H])[2H])c1 [II-11hydrochloride] ... 16.4
[2H]C([2H])([2H])Oc1cccc([C@]2(O)CCN(C(=O)Cc3cc(F)c(F)cc3F)C[C@H]2CN(C)C([2H])([2H])[2H])c1 [II-12hydrochloride] ... 13.6
[2H]C([2H])([2H])N(C)C[C@@H]1CN(S(=O)(=O)Cc2ccccc2)CC[C@@]1(O)c1cccc(OC)c1 [II-1hydrochloride] ... 16.37
[2H]C([2H])([2H])Oc1cccc([C@]2(O)CCN(S(=O)(=O)Cc3ccccc3)C[C@H]2CN(C([2H])([2H])[2H])C([2H])([2H])[2H])c1 [II-5hydrochloride] ... 15.8
[2H]C([2H])([2H])Oc1cccc(C2(O)CCN(S(=O)(=O)Cc3ccccc3)CC2CN(C([2H])([2H])[2H])C([2H])([2H])[2H])c1 (stereo not drawn) [I-3hydrochloride] ... 14.9

Next:
Asked: Look up κOR binding rate for this compound: [2H]C([2H])([2H])N(CC1CN(C(=O)Cc2cc(F)c(F)cc2F)CCC1(O)c1cccc(OC)c1)C([2H])([2H])[2H] (stereo not drawn) [I-8hydrochloride]
Given back: 16.4
